# Enzyme Activity Endpoint Assay (purified): Fab'2 values compiled below
Tgt: pooled human IgG
Assay readout: Enzyme Activity Endpoint Assay (purified): Fab'2 (ng/µL)

protein="PRT-250 (protein) MVTSVWTKGVTPPTNFTYGEDVLHAPYVANQGWYDITKLFNGKDDLLCGAATAGNMLHWWFDQNKEQIENYLKKHPEKQKINFNGEQMFDVKEAIDTKDSQLDSKLFDYFKEKAFPNLSTKHLGVFPDHVIDMFINGYRLSLLNHGPTPVKRGSKDPRGGIFDAVFTRGDQSKLLTNRHDFKEKTLKEISDLIKQELTEGKALGISHTYANGRINHVINLWGADFDAEGNLEAIYVTDSDSNPSIGMKKYFVGVNSSGKVAISAKEIEEDNIGAQVLGLFTLSTGQDIWNQTN" obs_value=313
protein="PRT-297 (protein) MVTSVWTKGVTPPADFTQGEDVFHAPYDANQGWYDITKEFNGKDDLLCGAATAGNMLHWWFDQNKEYIEAYLKKHPEKQKIMFGDQELLDVRKAINTKGSQKNSELFNYFRDKAFPNLSARRLGVMPDLVLDMFINGYYLNVTKTQTTDVNRTYQEKDKRGGIFDAVFTRGDQSKLLTSRHDFKEKGLKEISDLIKQELTEGKALGLSHTYANVRIGHVINLWGADFDSDGNLKAIYVTDSDSNASIGMKKYGVGVNSAGKVAISAKEIKEDNIGAQVLGLFTLSTGQDIWNQTN" obs_value=484
